Recorded values, source patent US10556898B2.

Attribute: IC50
Target: GST-tagged human ROCK1 catalytic domain 1-477 (Homo sapiens)
Construct: human ROCK1 catalytic domain 1-477 from Carna Biosciences (cat #01-109); purchased Carna Biosciences 01-109; host or cells: baculovirus expression system
Sequence (Q13464 1-477): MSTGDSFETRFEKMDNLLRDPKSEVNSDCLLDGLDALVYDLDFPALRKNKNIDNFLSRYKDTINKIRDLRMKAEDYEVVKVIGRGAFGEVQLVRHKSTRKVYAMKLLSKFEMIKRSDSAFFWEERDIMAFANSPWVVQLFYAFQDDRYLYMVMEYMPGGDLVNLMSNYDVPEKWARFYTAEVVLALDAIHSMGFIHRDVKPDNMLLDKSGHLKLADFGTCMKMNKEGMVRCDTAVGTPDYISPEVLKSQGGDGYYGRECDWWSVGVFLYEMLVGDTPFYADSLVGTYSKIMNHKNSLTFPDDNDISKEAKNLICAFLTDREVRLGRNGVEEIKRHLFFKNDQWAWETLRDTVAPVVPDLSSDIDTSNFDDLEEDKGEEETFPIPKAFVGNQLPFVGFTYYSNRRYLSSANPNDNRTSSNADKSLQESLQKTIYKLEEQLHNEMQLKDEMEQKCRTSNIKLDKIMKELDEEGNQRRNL
Assay: Isolated Enzyme Assay, ROCK1 (LANCE Ultra ULight-CREBtide FRET)
Assay type: biochemical
Conditions: isolated enzyme assay; 30 μM highest concentration tested; read-out: Results from Isolated Enzyme Assay IC50 (μM) ROCK1

Reference set (8 entries):
1) COc1cccc(C(=O)Nc2cc(-c3nsc(Nc4ccc5[nH]ncc5c4Cl)n3)ccn2)c1 [IV-64] :: > 30 µM
2) CN(C)CCn1cnc2c(-c3nsc(Nc4ccc5[nH]ncc5c4Cl)n3)cccc21 [IV-67] :: 1 to 15 µM
3) O=c1ccccn1-c1cccc(-c2nsc(Nc3ccc4[nH]ncc4c3Cl)n2)c1 [IV-53] :: 1 to 15 µM
4) O=C(Nc1cncc(-c2nsc(Nc3ccc4[nH]ncc4c3Cl)n2)c1)c1cnco1 [IV-24] :: > 30 µM
5) C[C@@H]1CN(c2cccc(-c3nsc(Nc4ccc5[nH]ncc5c4Cl)n3)c2)C(=O)O1 [IV-31] :: < 1 µM
6) Cc1c(S(=O)(=O)Nc2cccc(-c3nsc(Nc4ccc5[nH]ncc5c4Cl)n3)c2)cnn1C(F)F [IV-51] :: 15 to 30 µM
7) O=C(Nc1cncc(-c2nsc(Nc3ccc4[nH]ncc4c3Cl)n2)c1)c1cncs1 [IV-18] :: > 30 µM
8) O=C(c1cccc(-c2nsc(Nc3ccc4[nH]ncc4c3Cl)n2)c1)N1CCc2ccccc2C1 [IV-84] :: > 30 µM

In: State the recorded IC50 for this entry: O=C1CCCN1c1cccc(-c2nsc(Nc3ccc4[nH]ncc4c3Cl)n2)c1 [IV-83]
Out: < 1 µM

In: What do you have for Cc1coc(-c2cc(CO)cc(-c3nsc(Nc4ccc5[nH]ncc5c4Cl)n3)c2)n1 [IV-68] ?
Out: < 1 µM

In: Same thing, different compound: Cc1nc(S(=O)(=O)Nc2cccc(-c3nsc(Nc4ccc5[nH]ncc5c4Cl)n3)c2)cn1C [IV-41]
Out: < 1 µM

###

Molecular target: GST-tagged human ROCK1 catalytic domain 1-477 (Homo sapiens)
Construct: human ROCK1 catalytic domain 1-477 from Carna Biosciences (cat #01-109); purchased Carna Biosciences 01-109; host or cells: baculovirus expression system
Assay: Isolated Enzyme Assay, ROCK1 (LANCE Ultra ULight-CREBtide FRET)
Assay type: biochemical
Conditions: isolated enzyme assay; 30 μM highest concentration tested; read-out: Results from Isolated Enzyme Assay IC50 (μM) ROCK1
READOUT_TYPE: IC50

# count of solved cases: 5
1. CP(C)(=O)c1cccc(-c2nsc(Nc3ccc4[nH]ncc4c3Cl)n2)c1 :: > 30 µM
2. Cn1cnc2c(-c3nsc(Nc4ccc5[nH]ncc5c4Cl)n3)cccc21 :: < 1 µM
3. Cn1cc(C(=O)Nc2cccc(-c3nsc(Nc4ccc5[nH]ncc5c4Cl)n3)c2)c(C(F)(F)F)n1 :: < 1 µM
4. CC(C)NC(=O)c1cc(-c2nsc(Nc3ccc4[nH]ncc4c3Cl)n2)ccc1F :: < 1 µM
5. O=S(=O)(Nc1cccc(-c2nsc(Nc3ccc4[nH]ncc4c3Cl)n2)c1)c1cccnc1 :: > 30 µM

In: // returns reported IC50 for input O=C(NC1CCC1)c1cc(-c2nsc(Nc3ccc4[nH]ncc4c3Cl)n2)ccc1F
Out: < 1 µM

In: Try this compound next: Cn1cc(C(=O)Nc2cccc(-c3nsc(Nc4ccc5[nH]ncc5c4Cl)n3)c2)cn1
Out: < 1 µM

In: Follow-up entry: Cn1cc(-c2nsc(Nc3ccc4[nH]ncc4c3Cl)n2)cc(NC(=O)c2ccccc2F)c1=O
Out: > 30 µM

In: And for Cc1nn(C(F)F)cc1S(=O)(=O)Nc1cccc(-c2nsc(Nc3ccc4[nH]ncc4c3Cl)n2)c1 ?
Out: > 30 µM

In: Proceed to N#Cc1c(Nc2nc(-c3cccc([N+](=O)[O-])c3)ns2)ccc2[nH]ncc12
Out: > 30 µM

In: Could you do the same for Cc1cc(C(=O)Nc2cncc(-c3nsc(Nc4ccc5[nH]ncc5c4Cl)n3)c2)n(C)n1 , please?
Out: > 30 µM

In: Could you do the same for COc1ncc(C(=O)Nc2cccc(-c3nsc(Nc4ccc5[nH]ncc5c4Cl)n3)c2)cn1 , please?
Out: < 1 µM
